Form field: log10(IC50) (one value per entry).
- SYSTEM TESTED: 3-hydroxy-3-methylglutaryl-coenzyme A reductase (Rattus norvegicus, UniProt P51639)
- Sequence (P51639 whole entry): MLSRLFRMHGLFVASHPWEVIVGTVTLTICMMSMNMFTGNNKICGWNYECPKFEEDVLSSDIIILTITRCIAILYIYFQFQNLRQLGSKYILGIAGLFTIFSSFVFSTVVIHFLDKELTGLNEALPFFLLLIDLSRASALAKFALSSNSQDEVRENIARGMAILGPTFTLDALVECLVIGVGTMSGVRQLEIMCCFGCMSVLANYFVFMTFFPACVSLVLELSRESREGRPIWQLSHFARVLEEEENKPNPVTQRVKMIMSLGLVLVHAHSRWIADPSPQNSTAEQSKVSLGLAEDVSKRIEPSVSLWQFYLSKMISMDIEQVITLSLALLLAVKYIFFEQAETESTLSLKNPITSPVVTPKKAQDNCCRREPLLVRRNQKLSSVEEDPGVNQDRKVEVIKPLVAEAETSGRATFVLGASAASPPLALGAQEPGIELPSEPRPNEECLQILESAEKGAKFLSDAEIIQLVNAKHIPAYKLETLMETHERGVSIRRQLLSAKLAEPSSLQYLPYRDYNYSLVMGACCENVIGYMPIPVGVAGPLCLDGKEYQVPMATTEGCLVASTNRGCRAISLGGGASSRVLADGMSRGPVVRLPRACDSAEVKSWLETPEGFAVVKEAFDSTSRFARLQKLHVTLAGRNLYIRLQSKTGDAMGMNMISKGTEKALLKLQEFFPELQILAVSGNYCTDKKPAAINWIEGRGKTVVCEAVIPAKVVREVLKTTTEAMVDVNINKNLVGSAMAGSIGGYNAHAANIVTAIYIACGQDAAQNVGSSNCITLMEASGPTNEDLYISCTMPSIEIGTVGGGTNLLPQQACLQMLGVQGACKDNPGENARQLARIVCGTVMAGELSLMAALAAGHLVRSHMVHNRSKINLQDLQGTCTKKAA
Quick note: numbers are log10 of IC50, with nM as the unit.

# example entries with known answers
{"columns": ["COMPOUND", "SYSTEM TESTED", "log10(IC50)"],
 "data": [
  ["CCCC(CC)(CC)C(=O)O[C@H]1C[C@@H](C)C=C2C=C[C@H](C)[C@H](CC[C@@H]3C[C@@H](O)CC(=O)O3)C21 (some centres undefined)", "3-hydroxy-3-methylglutaryl-coenzyme A reductase (Rattus norvegicus, UniProt P51639)", 0.28],
  ["CC[C@@H](C)C(=O)O[C@H]1C[C@@H](C)C=C2C=C[C@H](C)[C@H](CC[C@@H]3C[C@@H](O)CC(=O)O3)C21 (some centres undefined)", "3-hydroxy-3-methylglutaryl-coenzyme A reductase (Rattus norvegicus, UniProt P51639)", 0.34],
  ["C[C@H]1C=C2C=C[C@H](C)[C@H](CC[C@@H]3C[C@@H](O)CC(=O)O3)C2[C@@H](OC(=O)C(C)(C)C)C1 (some centres undefined)", "3-hydroxy-3-methylglutaryl-coenzyme A reductase (Rattus norvegicus, UniProt P51639)", 0.43],
  ["CC(CC(=O)O[C@H]1C[C@@H](C)C=C2C=C[C@H](C)[C@H](CC[C@@H]3C[C@@H](O)CC(=O)O3)C21)C(F)(F)F (some centres undefined)", "3-hydroxy-3-methylglutaryl-coenzyme A reductase (Rattus norvegicus, UniProt P51639)", 0.54],
  ["CCC(C)(CC)C(=O)O[C@H]1C[C@@H](C)C=C2C=C[C@H](C)[C@H](CC[C@@H]3C[C@@H](O)CC(=O)O3)C21 (some centres undefined)", "3-hydroxy-3-methylglutaryl-coenzyme A reductase (Rattus norvegicus, UniProt P51639)", 0.15],
  ["C[C@H]1C=C2C=C[C@H](C)[C@H](CC[C@@H]3C[C@@H](O)CC(=O)O3)[C@H]2[C@@H](OC(=O)Cc2ccccc2)C1", "3-hydroxy-3-methylglutaryl-coenzyme A reductase (Rattus norvegicus, UniProt P51639)", 1.28],
  ["CCC(CC)(CC)C(=O)O[C@H]1C[C@@H](C)C=C2C=C[C@H](C)[C@H](CC[C@@H]3C[C@@H](O)CC(=O)O3)C21 (some centres undefined)", "3-hydroxy-3-methylglutaryl-coenzyme A reductase (Rattus norvegicus, UniProt P51639)", 0.15],
  ["C[C@H]1C=C2C=C[C@H](C)[C@H](CC[C@@H]3C[C@@H](O)CC(=O)O3)C2[C@@H](OC(=O)C2CC2)C1 (some centres undefined)", "3-hydroxy-3-methylglutaryl-coenzyme A reductase (Rattus norvegicus, UniProt P51639)", 1.59]
]}

Turning now to a further record.
For the compound shown here, C[C@H]1C=C2C=C[C@H](C)[C@H](CC[C@@H]3C[C@@H](O)CC(=O)O3)C2[C@@H](OC(=O)C23CC4CC(CC(C4)C2)C3)C1 (some centres undefined) , give the reported log10(IC50).
0.58

These data points were gathered from ChEMBL document CHEMBL1123526.
